B1: PLK2 (parent)
chain: MELLRTITYQPAASTKMCEQALGK

variants of: B1; assay: protein stability index of a GFP-peptide fusion (GPS, HEK-293T) (PSI 1-6); higher = more stable; settings: c terminus: a fixed tail appended;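 further: lentivirally expressed fusions sorted by FACS into six bins by GFP to DsRed ratio, PSI derived from sequencing read proportions per bin multiplied by bin number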
Assign class by protein stability index: not lower than 2 means MET; lower than 2 means NOT MET.

Use these answered entries as a reference point.
> print(dat)
                     sequence.data  assigned.category
1   MEWLRTITYQPAASTKMCEQALGK [L3W]                MET
2  MELLRTITYQPAASTKMCEQAWGK [L22W]                MET
3   HELLRTITYQPAASTKMCEQALGK [M1H]                MET
4   MELLRTIQYQPAASTKMCEQALGK [T8Q]            NOT MET
5  MELLRTITYQPAASIKMCEQALGK [T15I]                MET
6  MELLRTITYQPACSTKMCEQALGK [A13C]                MET
7  MELLRTITYQPAASTKMCEQPLGK [A21P]                MET
8  MELLRTITYQPAASTKMCEQELGK [A21E]                MET

# bool: protein stability index of MELLRTITYQPAASTKMCEQTLGK [A21T] >= 2
MET

# bool: protein stability index of MELLRTITYQPAASTKMCEQALTK [G23T] >= 2
NOT MET

Cited source for all entries: the supplement of paper PMC10567573
